target: BRD4 (BDI_K57-E168) (Homo sapiens); construct: BD1: amino acids K57-E168; assay: TR-FRET bromodomain binding assay, first bromodomain of BRD4; settings: His-tagged BD1, 100 nM Alexa647 probe; TR-FRET protocol A-E given per row

| Compound | Measured target | Unit abbreviation | Ki |
| --- | --- | --- | --- |
| CCS(=O)(=O)Nc1ccc(Oc2ccc(F)cc2F)c(-c2cn(C)c3c(=O)[nH]c(C(=O)N4CCC(O)CC4)cc23)c1 [Example 194] | BRD4 (BDI_K57-E168) (Homo sapiens) | nM | 10.5 |
| Cn1cc(-c2cc(S(C)(=O)=O)ccc2Oc2ccc3ccccc3c2)c2cc[nH]c(=O)c21 [Example 63] | BRD4 (BDI_K57-E168) (Homo sapiens) | nM | 74 |
| Cn1cc(-c2cc(S(C)(=O)=O)ccc2OCCCC2CCCC2)c2cc[nH]c(=O)c21 [Example 66] | BRD4 (BDI_K57-E168) (Homo sapiens) | nM | 219 |
| CCS(=O)(=O)c1ccc(Oc2ccc(Cl)cc2Cl)c(-c2cn(C)c3c(=O)[nH]ccc23)c1 [Example 82] | BRD4 (BDI_K57-E168) (Homo sapiens) | nM | 66 |
| Cn1cc(-c2cc(NC(=O)CCc3ccccc3)ccc2Oc2ccc(F)cc2F)c2cc[nH]c(=O)c21 [Example 152] | BRD4 (BDI_K57-E168) (Homo sapiens) | nM | 141 |
| COc1ccccc1S(=O)(=O)NCc1ccc(Oc2ccc(F)cc2F)c(-c2cn(C)c3c(=O)[nH]ccc23)c1 [Example 130] | BRD4 (BDI_K57-E168) (Homo sapiens) | nM | 247 |
| Cn1cc(-c2cc(S(C)(=O)=O)ccc2NCc2ccc(C#N)cc2)c2cc[nH]c(=O)c21 [Example 46] | BRD4 (BDI_K57-E168) (Homo sapiens) | nM | 205 |

Where do these numbers come from? They come from patent US9321764B2.
